- Tested on: NCI-H23
- Test Description: NCI tumour cell line growth inhibition, 48 h
Active and inactive are the calls of the source. No stated cut-off is given here; in the data, active = GI50 up to about 1.1 µM and inactive = higher.
Please reply with one of these outcomes: active, inactive

Solved cases below.
structure=Cc1ccc2c(=O)c(C(=O)N(CCO)CCO)c[nH]c2n1 category=inactive
structure=CN(C)CCn1c(=O)oc2cc(C(=O)CN3CCOCC3)ccc21 category=inactive
structure=O=C(O)Cc1ccc(N2N=C(c3ccccc3)CC2=O)cc1 category=inactive
structure=C=CCC1(CC)C(=O)NC(=O)NC1=O category=inactive

Prompt: Call for entry `S=C(N1CCN(c2ccc(Cl)c(Cl)c2)CC1)N1CCN(c2ccc(Cl)c(Cl)c2)CC1` :
Completion: inactive

Prompt: Record request — test call for `COC(=O)C1=C(OC)[C@H]2C#C/C=C\C#C[C@@H]3Nc4c(cc(O)c5c4C(=O)c4ccccc4C5=O)[C@]24O[C@@]34[C@H]1C`
Completion: active

---

- System: HCT-116
- Test Description: NCI tumour cell line growth inhibition, 48 h
Calls of active or inactive are those of the source. No stated cut-off is given here; in the data, active = GI50 up to about 1.1 µM and inactive = higher.
Would you mind answering with one of these outcomes? TRUE = active, FALSE = inactive

Prompt: Kindly provide the recorded test outcome for the following compound: `CCCc1nnc2sc(COc3ccc(OCc4nn5c(CCC)nnc5s4)c(Cl)c3)nn12`
Completion: FALSE

Prompt: Call for entry `O=S(=O)(c1ccc(I)cc1)N(c1ccccc1)S(=O)(=O)C(F)(F)C(F)(F)C(F)(F)C(F)(F)F` :
Completion: FALSE

Prompt: Entry `O=c1[nH]nc(Cc2ccc(Cl)cc2)n1/N=C/c1ccco1` : call = ?
Completion: FALSE

Prompt: What did this assay record as the result for `CC(=O)/C(=C/n1c(=S)sc2ccccc21)C(=O)Nc1ccccc1C` ?
Completion: FALSE

Prompt: For this compound, state the assay outcome: `CS(=O)(=O)OCCN(CCOS(C)(=O)=O)c1ccc(/C=N/c2cccc(Cl)c2)cc1`
Completion: FALSE

Prompt: I'd appreciate the recorded outcome for Cn1c2ccccc2c(=O)c2c(O)cc3c(c21)CC(C1(C)CO1)O3 (centres undefined) from this test.
Completion: TRUE

Prompt: Recorded call for `C=C1C2=C(CCCC2)C(=O)OC12CCCCC2` ?
Completion: FALSE

Prompt: Which result was noted for this compound in the test: CCCCCCCCCCCCCCCCCCOCC(CCP(=O)(CP(=O)(O)O)Oc1ccccc1)OCCCCCCCCCCCCCCCCCC (centres undefined)
Completion: FALSE

Prompt: Record lookup: outcome of this test for CC(=O)O[C@H]1CCc2c(cc(N)c3c2C(=O)C[C@]2(C)C([C@H](C)CCCC(C)C)CCC32C)C1(C)C (some centres undefined) ?
Completion: FALSE

Prompt: Outcome? `COc1cc2c(c(OC)c1OC)-c1ccc(SC)cc1[C@H](OC(=O)c1ccccc1)CC2`
Completion: TRUE

Prompt: Returns: the outcome recorded for `O=C1/C(=C/C=C/c2ccccc2)N=C(c2ccccc2)N1c1ccc(S(=O)(=O)Nc2nccs2)cc1` in this assay.
Completion: FALSE

Prompt: What did this assay record as the result for `C=C(C)[C@@H]1C[C@H]2O[C@](O)(C(=C)CC(=O)/C=C(/C)C[C@@H]3OC(=O)[C@]24O[C@@H]34)[C@H]1O` ?
Completion: FALSE

Prompt: # fetch the recorded call for `CN(C)c1ccc(-c2cc(O)c3cc4c(cc3n2)OCO4)cc1` here
Completion: FALSE

Prompt: Assay result, entry `Cc1cc2c(cc1Cl)Sc1nnc(Nc3ccccc3)n1S2(=O)=O` — outcome?
Completion: FALSE
